target: HPK1 (Homo sapiens (Human), UniProt Q92918, S171E/T165E); test: HPK1-FL HTRF Enzymatic Assay ("HTRF"); conditions: HPK full length, ATP 1 mM
Sequence (Q92918 whole entry T165E/S171E): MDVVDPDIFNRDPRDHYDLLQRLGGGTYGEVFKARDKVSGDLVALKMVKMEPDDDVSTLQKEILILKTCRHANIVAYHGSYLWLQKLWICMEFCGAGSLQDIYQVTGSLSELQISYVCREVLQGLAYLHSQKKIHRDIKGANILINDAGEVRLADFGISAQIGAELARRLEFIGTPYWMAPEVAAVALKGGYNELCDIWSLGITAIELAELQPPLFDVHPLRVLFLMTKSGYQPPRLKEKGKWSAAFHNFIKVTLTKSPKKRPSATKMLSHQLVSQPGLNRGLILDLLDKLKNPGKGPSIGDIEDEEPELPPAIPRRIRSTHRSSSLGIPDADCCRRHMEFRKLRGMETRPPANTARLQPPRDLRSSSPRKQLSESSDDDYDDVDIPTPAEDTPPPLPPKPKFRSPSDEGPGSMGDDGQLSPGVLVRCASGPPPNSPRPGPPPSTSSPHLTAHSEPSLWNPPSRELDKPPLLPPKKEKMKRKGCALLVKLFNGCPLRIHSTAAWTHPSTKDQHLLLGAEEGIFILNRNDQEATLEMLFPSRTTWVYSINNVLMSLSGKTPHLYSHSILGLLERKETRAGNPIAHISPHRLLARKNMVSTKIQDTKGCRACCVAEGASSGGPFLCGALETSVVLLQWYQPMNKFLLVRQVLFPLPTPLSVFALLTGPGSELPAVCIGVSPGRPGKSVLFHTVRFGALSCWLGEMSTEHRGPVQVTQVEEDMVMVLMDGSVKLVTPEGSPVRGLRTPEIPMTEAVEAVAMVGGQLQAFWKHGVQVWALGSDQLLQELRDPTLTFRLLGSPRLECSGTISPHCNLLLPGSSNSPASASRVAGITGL
OBSERVATION TYPE: log10(Ki) (log10 of the value in nM)

- Cc1c(-c2cc3cc(NC(=O)OC4CC5(C4)CN(C)C5)ncc3cc2F)cnc2c1NCCC2 [Compound 132]: 0.06
- Cc1c(-c2cc3cc(NC(=O)OCCc4ccccn4)ncc3cc2F)cnc2c1NCCO2 [Compound 119]: 0.98
- Cc1c(-c2cc3cc(NC(=O)NC4CCOCC4)ncc3cc2F)cnc2c1NCCO2 [Compound 204]: -0.08
- CC[C@H]1[C@@H](C(=O)Nc2cc3cc(-c4cnc5c(c4C)NCCO5)c(F)cc3cn2)[C@@H]1c1cnn(C)c1 (single isomer, unassigned) [Compound 301d]: 0.26
- Cc1c(-c2cc3cc(NC(=O)NC4CNC4)ncc3cc2F)cnc2c1NCCO2 [Compound 205]: -0.12
- Cc1c(-c2cc3cc(NC(=O)NC(C)CC#N)ncc3cc2F)cnc2c1NCCO2 (single isomer, unassigned) [Compound 203b]: 0.04
- Cc1c(-c2cc3cc(NC(=O)OC4CCC45CCNC5)ncc3cc2F)cnc2c1NCCO2 (racemic) [Compound 123]: 0.88
- CNC(=O)N1CC(OC(=O)Nc2cc3cc(-c4cnc5c(c4C)NCCO5)c(F)cc3cn2)C1 [Compound 105]: -0.04
- Cc1c(-c2cc3cc(NC(=O)O[C@H]4CCC[C@@H]4C#N)ncc3cc2F)cnc2c1NCCO2 (single isomer, unassigned) [Compound 128b]: -0.11

###

biological target: HPK1 (Homo sapiens (Human), UniProt Q92918, S171E/T165E); assay: HPK1-FL HTRF Enzymatic Assay ("HTRF"); conditions: HPK full length, ATP 1 mM
pKi: −log10 of the molar value.
OBSERVATION TYPE: pKi

* Cc1c(-c2cc3cc(NC(=O)OCC(C)N)ncc3cc2F)cnc2c1NCCO2 (racemic) [Compound 110] | 7.54
* Cc1c(-c2cc3cc(NC(=O)O[C@H]4[C@@H]5CNC[C@@H]54)ncc3cc2F)cnc2c1NCCO2 [Compound 129a] | 9.24
* Cc1c(-c2cc3cc(NC(=O)OC4CC5(CCNCC5)C4)ncc3cc2F)cnc2c1NCCO2 [Compound 113] | 9.57
* Cc1c(-c2cc3cc(NC(=O)NC(C)c4cnn(C)c4)ncc3cc2F)cnc2c1NCCO2 (single isomer, unassigned) [Compound 201a] | 9.02
* Cc1c(-c2cc3cc(NC(=O)NC4CC4)ncc3cc2F)cnc2c1NCCO2 [Compound 207] | 9.70
* Cc1c(-c2cc3cc(NC(=O)OC4CC5CC4CN5)ncc3cc2F)cnc2c1NCCO2 (centres unmarked) [Compound 121] | 8.06
* Cc1c(-c2cc3cc(NC(=O)O[C@@H]4CCC[C@H]4C#N)ncc3cc2F)cnc2c1NCCO2 (single isomer, unassigned) [Compound 128a] | 8.60
* Cc1c(-c2cc3cc(NC(=O)OCC4(F)CCNC4)ncc3cc2F)cnc2c1NCCO2 (racemic) [Compound 106] | 8.62
* CC(=O)N1CC(OC(=O)Nc2cc3cc(-c4cnc5c(c4C)NCCO5)c(F)cc3cn2)C1 [Compound 104] | 8.54
* Cc1c(-c2cc3cc(NC(=O)OCC4CCNC4)ncc3cc2F)cnc2c1NCCO2 (racemic) [Compound 107] | 8.68
* Cc1c(-c2cc3cc(NC(=O)NC4CCOC4)ncc3cc2F)cnc2c1NCCO2 (single isomer, unassigned) [Compound 206a] | 9.06
